# inhibition at 1 µM values compiled below
Tested Target: human serotonin transporter (Homo sapiens, UniProt P31645)
Construct: expressed in transfected cells
Sequence (P31645 whole entry): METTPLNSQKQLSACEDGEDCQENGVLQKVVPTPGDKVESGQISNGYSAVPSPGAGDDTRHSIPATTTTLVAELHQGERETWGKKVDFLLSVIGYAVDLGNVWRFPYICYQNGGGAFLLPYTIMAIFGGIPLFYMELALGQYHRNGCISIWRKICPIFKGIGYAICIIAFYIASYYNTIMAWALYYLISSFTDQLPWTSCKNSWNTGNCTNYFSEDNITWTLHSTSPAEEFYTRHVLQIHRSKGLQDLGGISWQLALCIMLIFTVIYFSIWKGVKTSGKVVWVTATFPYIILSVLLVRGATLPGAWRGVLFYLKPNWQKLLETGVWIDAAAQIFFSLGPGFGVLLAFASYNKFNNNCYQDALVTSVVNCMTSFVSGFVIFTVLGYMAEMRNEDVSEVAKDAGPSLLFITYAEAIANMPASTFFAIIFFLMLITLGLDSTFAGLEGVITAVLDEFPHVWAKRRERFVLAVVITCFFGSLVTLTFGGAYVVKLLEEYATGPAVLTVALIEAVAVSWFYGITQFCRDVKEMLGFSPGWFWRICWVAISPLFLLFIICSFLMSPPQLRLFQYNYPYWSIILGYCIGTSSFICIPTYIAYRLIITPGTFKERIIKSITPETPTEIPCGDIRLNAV
Procedure Summary: Inhibitory action on human serotonin transporter ([3H]-5-hydroxytryptamine uptake in CHO cells)
Assay type: cell-based
Assay Conditions: CHO, compound 1 μM; relative to inhibitory activity of 10 μM Paroxetine as 100%; read-out: inhibitory rate (%)
Counter-ions that a name gives are not always drawn.
Quote the value and follow it with the unit of measurement.

[Q] inhibition at 1 µM for COCC(=O)NC[C@@H]1CNCCO[C@H]1c1ccc(Cl)c(Cl)c1 [Example 33, monohydrochloride] ?
[A] 92%

[Q] For CS(=O)(=O)NC[C@@]1(O)CNCCO[C@@H]1c1ccc(Cl)c(Cl)c1 (racemic) [Example 162, monohydrochloride] then?
[A] 65%

[Q] Another compound: O=C(O)c1cccn(C[C@@H]2CNCCO[C@H]2c2ccc(Cl)c(F)c2)c1=O (racemic) [Example 588]
[A] 43%
